These data points were gathered from patent US4855290A.

System: Guinea-pig ileum
Test Details: Guinea-pig ileum induced contractions
Condition Description: guinea-pig ileum
Measured Endpoint: Type of activity

1. c1ccc(C(c2ccccc2)C2OC3(CS2)CN2CCC3CC2)cc1 (centres unmarked)    antagonist
2. C[C@@H]1OCC2(CN3CCC2CC3)O1 (stereo in doubt) [AF30, reference compound]    agonist
3. CC1(c2ccccc2)OC2(CS1)CN1CCC2CC1 (centres unmarked)    antagonist
4. C[C@@H]1O[C@]2(CS1)CN1CCC2CC1 (relative stereo) [AF102A]    agonist
5. C[C@H]1O[C@]2(CS1)CN1CCC2CC1 (relative stereo) [AF102B]    agonist

* * *

Test Details: Acute oral toxicity of AF102B in rats
Format: in vivo, rats (Charles River CD strain)
Condition Description: rat, in vivo, po
Measured Endpoint: LD50 at 336 h

1) C[C@H]1O[C@]2(CS1)CN1CCC2CC1 (relative stereo) [AF102B]    > 156 mg/kg

* * *

Test Details: in vivo
Condition Description: rat, ip, LD50 (95% C.L.), rats
Measured Endpoint: LD50 at 336 h (mg/kg)

1) C[C@H]1O[C@]2(CS1)CN1CCC2CC1 (relative stereo) [AF102B]    77.6

* * *

Test Details: LD50 of physostigmine (relative toxicity in rats)
Condition Description: rat, in vivo, ip
Measured Endpoint: LD50

1) CNC(=O)Oc1ccc2c(c1)[C@]1(C)CCN(C)[C@@H]1N2C [physostigmine, reference compound]    1 to 2 mg/kg

* * *

# IC50 per entry
System: central muscarinic receptors (M1 and M2)
Condition Description: read-out: IC50^2 for displacement of [^3 H]-QNB
Measured Endpoint: IC50

1) C[C@H]1O[C@]2(CS1)CN1CCC2CC1 (relative stereo) [AF102B]    10 µM
2) C[C@@H]1O[C@]2(CS1)CN1CCC2CC1 (relative stereo) [AF102A]    70 µM

* * *

System: central muscarinic receptors (M1) (Rattus norvegicus)
Sequence (P08482 whole entry): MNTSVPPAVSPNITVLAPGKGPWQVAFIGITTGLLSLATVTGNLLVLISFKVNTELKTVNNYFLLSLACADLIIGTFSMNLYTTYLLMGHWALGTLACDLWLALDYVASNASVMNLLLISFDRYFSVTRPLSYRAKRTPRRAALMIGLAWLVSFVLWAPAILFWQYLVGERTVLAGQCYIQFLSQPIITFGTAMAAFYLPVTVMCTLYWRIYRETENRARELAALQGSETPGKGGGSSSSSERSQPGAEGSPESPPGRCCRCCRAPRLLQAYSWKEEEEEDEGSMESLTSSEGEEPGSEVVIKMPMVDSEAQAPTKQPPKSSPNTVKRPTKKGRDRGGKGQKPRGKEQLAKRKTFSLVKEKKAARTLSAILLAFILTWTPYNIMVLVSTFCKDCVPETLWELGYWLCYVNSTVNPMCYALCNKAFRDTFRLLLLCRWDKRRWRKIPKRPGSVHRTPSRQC
Test Details: biochemical
pEC50: −log10 of the molar value.
# pEC50 per entry
Measured Endpoint: pEC50

1. C[C@H]1O[C@]2(CS1)CN1CCC2CC1 (relative stereo) [AF102B]    6.40
2. O=C1CCCN1CC#CCN1CCCC1 [oxotremorine, reference compound]    6.10

* * *

Test Details: in vivo
Condition Description: rat, ip, LD50, rats
Measured Endpoint: LD50 at 336 h (mg/kg)

1) C[C@H]1O[C@]2(CS1)CN1CCC2CC1 (relative stereo) [AF102B]    77.6

* * *

Test Details: in vivo
Condition Description: mouse, po
Measured Endpoint: LD50

1. C[C@@H]1O[C@]2(CS1)CN1CCC2CC1 (relative stereo) [AF102A]    102 mg/kg
2. C[C@H]1O[C@]2(CS1)CN1CCC2CC1 (relative stereo) [AF102B]    92 mg/kg

* * *

System: UniProtKB P08482
# IC50 per entry
Measured Endpoint: IC50 (nM)

1) C[C@@H]1O[C@]2(CS1)CN1CCC2CC1 (relative stereo) [AF102A]    30000
2) O=C1CCCN1CC#CCN1CCCC1 [oxotremorine, reference compound]    800
3) C[C@H]1O[C@]2(CS1)CN1CCC2CC1 (relative stereo) [AF102B]    400
